testedTarget: Kappa-type opioid receptor (Homo sapiens, UniProt P41145)
Sequence (P41145 whole entry): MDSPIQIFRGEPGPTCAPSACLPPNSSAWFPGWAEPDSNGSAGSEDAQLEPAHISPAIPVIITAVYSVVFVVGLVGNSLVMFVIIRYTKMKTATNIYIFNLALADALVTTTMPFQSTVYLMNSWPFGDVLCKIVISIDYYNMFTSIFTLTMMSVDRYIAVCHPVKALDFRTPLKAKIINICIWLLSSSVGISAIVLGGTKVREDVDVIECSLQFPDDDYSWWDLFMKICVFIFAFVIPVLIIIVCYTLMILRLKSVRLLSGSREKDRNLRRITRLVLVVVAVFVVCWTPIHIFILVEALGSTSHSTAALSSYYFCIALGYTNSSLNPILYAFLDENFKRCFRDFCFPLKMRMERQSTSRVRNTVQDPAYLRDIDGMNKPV
protocolDetails: Displacement of 3H-U69593 from human KOR expressed in HEK293 cells at 50 uM after 90 mins by micro beta scintillation counting analysis
Format: cell-based
Catalogue of inhibition readings, one per entry.

compound | unitText | inhibition
CC(CCc1ccc(O)cc1)NCCc1ccccc1 (stereo unspecified) | % | 70.2
Oc1cccc(CNCc2cc3ccccc3[nH]2)c1 | % | 82.4
Oc1ccc(CCC2CCCCN2Cc2ccc(Cl)o2)cc1 (stereo unspecified) | % | 95.3
Cc1ccc(C(CNC(=O)c2oc3ccccc3c2C)N2CCCC2)o1 (stereo unspecified) | % | 69.1
COc1ccc(CNCC(O)c2cccc(O)c2)cc1Br (stereo unspecified) | % | 98.2
Cc1cc2oc(C(=O)NCC(c3ccco3)N3CCCC3)c(C)c2cc1C (stereo unspecified) | % | 77.5
Cc1ccc(C(CNC(=O)c2oc3ccc(F)cc3c2C)N2CCCC2)o1 (stereo unspecified) | % | 75.8
CN(Cc1ccccc1NC(=O)NCc1ccoc1)C1CCCCC1 | % | 76.5
NC1CCc2cc(O)ccc2C1 (stereo unspecified) | % | 48.6
c1ccc(CN2CCC(Nc3nc4ccccc4o3)C2)cc1 (stereo unspecified) | % | 77.5
CCN(Cc1csc(C)n1)C(C)c1cccc(O)c1 (stereo unspecified) | % | 74

---

testedTarget: Kappa-type opioid receptor (Homo sapiens)
protocolDetails: Displacement of 3H-U69593 from human KOR expressed in HEK293 cells at 50 uM after 90 mins by micro beta scintillation counting analysis
Assay type: cell-based

compound | inhibition [%]
Cc1cc(S(=O)(=O)NCC(=O)NC2CCC2NC(C)C)ccc1F (configuration not stated) | 49.1
Cc1cccc(C(O)CNC(C)Cn2cc(Br)cn2)c1 (configuration not stated) | 49.8
NC(=O)c1cc(S(=O)(=O)NC2CCN(Cc3ccccc3)CC2)cs1 | 47.3
Cc1ccc(-c2ccccc2CN2CC3CNCC3C2)o1 (configuration not stated) | 60.7
Cc1ncsc1CN1CCCCC1CCc1cccc(O)c1 (configuration not stated) | 96.9
Oc1cccc(C(O)CNCc2ccc(Cl)cc2Cl)c1 (configuration not stated) | 97.9
Cc1nc(O)cc(C2CCN(Cc3ccc(C4CCCC4)s3)CC2)n1 | 73.7
COc1ccc2oc(C(=O)NCC(c3ccco3)N3CCCC3)c(C)c2c1 (configuration not stated) | 74
Cc1c(C(=O)NCC(c2ccco2)N2CCCC2)oc2ccc(Cl)cc12 (configuration not stated) | 86.5
CSc1ccc(CN(CCO)Cc2ccc(-c3ccn[nH]3)s2)cc1 | 53
Oc1cccc(C(O)CNCc2c(Cl)cccc2Cl)c1 (configuration not stated) | 80.1
O=C(NC[C@@H](c1ccco1)N1CCCC1)c1cc2ccccc2o1 | 64

---

testedTarget: Kappa-type opioid receptor (Homo sapiens)
protocolDetails: Displacement of 3H-U69593 from human KOR expressed in HEK293 cells after 90 mins by micro beta scintillation counting analysis
Format: cell-based
testParameters: read-out: pKi (converted)
readoutName: Ki (µM)

compound | measuredValue
Cc1ccc(C(CNC(=O)c2oc3ccccc3c2C)N2CCCC2)o1 (stereo unspecified) | 0.363
Cc1ccc(C(CNC(=O)c2oc3ccc(F)cc3c2C)N2CCCC2)o1 (stereo unspecified) | 0.646
Oc1cccc(C(O)CNCc2ccc(Cl)cc2Cl)c1 (stereo unspecified) | 0.0832
Oc1cccc(CNCc2cc3ccccc3[nH]2)c1 | 0.676
CCN(Cc1csc(C)n1)C(C)c1cccc(O)c1 (stereo unspecified) | 0.562
O=C(NC[C@@H](c1ccco1)N1CCCC1)c1cc2ccccc2o1 | 0.912

---

testedTarget: Kappa-type opioid receptor (Homo sapiens)
protocolDetails: Displacement of 3H-U69593 from human KOR expressed in HEK293 cells after 90 mins by micro beta scintillation counting analysis
Assay type: cell-based
testParameters: read-out: Ki
pKi: −log10 of the molar value.
Entries and their pKi values follow.
readoutName: pKi

compound | testedTarget | readoutName | measuredValue
Cc1ncsc1CN1CCCCC1CCc1cccc(O)c1 (configuration not stated) | Kappa-type opioid receptor (Homo sapiens) | pKi | 6.46
O=C(NC[C@@H](c1ccco1)N1CCCC1)c1cc2ccccc2o1 | Kappa-type opioid receptor (Homo sapiens) | pKi | 6.02
Oc1cccc(C(O)CNCc2c(Cl)cccc2Cl)c1 (configuration not stated) | Kappa-type opioid receptor (Homo sapiens) | pKi | 5.59
CSc1ccc(CN(CCO)Cc2ccc(-c3ccn[nH]3)s2)cc1 | Kappa-type opioid receptor (Homo sapiens) | pKi | 5.52
CN(Cc1ccccc1NC(=O)NCc1ccoc1)C1CCCCC1 | Kappa-type opioid receptor (Homo sapiens) | pKi | 5.64
Cc1nc(O)cc(C2CCN(Cc3ccc(C4CCCC4)s3)CC2)n1 | Kappa-type opioid receptor (Homo sapiens) | pKi | 5.09
COc1ccc(CNCC(O)c2cccc(O)c2)cc1Br (configuration not stated) | Kappa-type opioid receptor (Homo sapiens) | pKi | 6.64
NC(=O)c1cc(S(=O)(=O)NC2CCN(Cc3ccccc3)CC2)cs1 | Kappa-type opioid receptor (Homo sapiens) | pKi | 5.01
Cc1ccc(C(CNC(=O)c2oc3ccc(F)cc3c2C)N2CCCC2)o1 (configuration not stated) | Kappa-type opioid receptor (Homo sapiens) | pKi | 6.18
Cc1cccc(C(O)CNC(C)Cn2cc(Br)cn2)c1 (configuration not stated) | Kappa-type opioid receptor (Homo sapiens) | pKi | 5.19
COc1ccc2oc(C(=O)NCC(c3ccco3)N3CCCC3)c(C)c2c1 (configuration not stated) | Kappa-type opioid receptor (Homo sapiens) | pKi | 6.14
Cc1cc(S(=O)(=O)NCC(=O)NC2CCC2NC(C)C)ccc1F (configuration not stated) | Kappa-type opioid receptor (Homo sapiens) | pKi | 5.21
